target.or.test.system: Sut1 (UniProt P53032)
Sequence: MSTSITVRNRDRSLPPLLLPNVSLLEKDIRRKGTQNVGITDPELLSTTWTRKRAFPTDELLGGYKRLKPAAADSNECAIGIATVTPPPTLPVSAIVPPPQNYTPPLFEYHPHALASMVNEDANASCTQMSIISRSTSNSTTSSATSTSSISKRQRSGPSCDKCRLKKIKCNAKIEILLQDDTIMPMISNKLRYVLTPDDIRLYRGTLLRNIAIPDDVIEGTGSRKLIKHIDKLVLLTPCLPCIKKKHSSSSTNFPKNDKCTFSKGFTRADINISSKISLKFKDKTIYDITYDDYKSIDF
experimental.protocol: PBM E-score (8-mer binding enrichment) (E-score (-0.5 to 0.5)); higher = stronger / more preferred TF binding
run.parameters: protein concentration: 200 nM; construct: GST-full length
Over roughly 33,000 sequences, “E-score (-0.5 to 0.5)” has its median near -0.017; the highest 2% begin near 0.3. This is one part of a sample in which the highest values are shown more often than they occur.
Would you kindly list PBM E-score for each of these sequences?

Exam item: Report PBM E-score from Sut1 (UniProt P53032) testing of `TCGAACAA`
Marked response: 0.102

Exam item: Look up and report measured PBM E-score (Sut1 (UniProt P53032)) for the following sequence: `TCTCTGAA`
Marked response: -0.135

Exam item: Would you please give the reported PBM E-score of `GAGAATCA` with Sut1 (UniProt P53032)?
Marked response: 0.0959

Exam item: # assay system Sut1 (UniProt P53032): give PBM E-score of `AAATTAAC`
Marked response: 0.236

Exam item: Under Sut1 (UniProt P53032): report PBM E-score of `GCCTTGCC` .
Marked response: -0.155

Exam item: // fetch PBM E-score for `ATTATTTG` ; system: Sut1 (UniProt P53032)
Marked response: 0.319

Exam item: State, for Sut1 (UniProt P53032), measured PBM E-score of the sequence listed here: `AGTAGACC`
Marked response: -0.172

Exam item: Specify PBM E-score for `AGTGCTCA` , system Sut1 (UniProt P53032).
Marked response: -0.105

Exam item: Report measured PBM E-score on Sut1 (UniProt P53032); entry: `TACTAATA`
Marked response: 0.181

Exam item: State the measured PBM E-score (Sut1 (UniProt P53032)) of `CTTAGCCC`
Marked response: -0.129

Exam item: Under Sut1 (UniProt P53032), report PBM E-score for `GCGACTAA`
Marked response: -0.0293

Exam item: State PBM E-score (Sut1 (UniProt P53032)) of `CATCGAAC` .
Marked response: -0.0517

Exam item: Fill: PBM E-score (Sut1 (UniProt P53032)) for this sequence `AATTTCTA`
Marked response: 0.285

Exam item: Give measured PBM E-score for `ATGCACGG` (Sut1 (UniProt P53032)).
Marked response: -0.114

Exam item: # return PBM E-score for `CTACGGAA` , test system: Sut1 (UniProt P53032)
Marked response: 0.0897

Exam item: Give reported PBM E-score for `ATATTATA` (Sut1 (UniProt P53032))
Marked response: 0.249

Exam item: Give measured PBM E-score for `ATACGGAT` (Sut1 (UniProt P53032)).
Marked response: 0.0822

Exam item: Give PBM E-score for `AACTAACA` tested on Sut1 (UniProt P53032).
Marked response: 0.0858

Exam item: Answer with PBM E-score of `GAGGTGGA` measured for Sut1 (UniProt P53032).
Marked response: -0.151

Exam item: Please indicate recorded PBM E-score of `ATACGGTG` measured with Sut1 (UniProt P53032).
Marked response: 0.0347

Exam item: Fill: PBM E-score (Sut1 (UniProt P53032)) for this sequence `ACGTCCGC`
Marked response: -0.121

Exam item: Using Sut1 (UniProt P53032) as the test system, report measured PBM E-score of `AAACGGTA` .
Marked response: 0.0446

Exam item: Report its PBM E-score with Sut1 (UniProt P53032) as the test system: `AAATTAAA`
Marked response: 0.333

Exam item: Check Sut1 (UniProt P53032) data and give PBM E-score for `CCCTGGGC` .
Marked response: -0.324

Exam item: Tell me its PBM E-score on Sut1 (UniProt P53032): `CCTCAAGA`
Marked response: -0.113

Exam item: Please indicate recorded PBM E-score of `ACGTAGGC` measured with Sut1 (UniProt P53032).
Marked response: -0.171

Exam item: Specify the recorded PBM E-score for `CATCCACC` , system: Sut1 (UniProt P53032).
Marked response: -0.0255

Exam item: Give Sut1 (UniProt P53032) PBM E-score for the following sequence: `GCTAAAGC`
Marked response: -0.0213

Exam item: Return reported PBM E-score for target or system Sut1 (UniProt P53032), item `CTTACTCA` .
Marked response: -0.0535

Exam item: # assay system Sut1 (UniProt P53032): give PBM E-score of `CATGCGTA`
Marked response: -0.0829

Exam item: Report PBM E-score under test system Sut1 (UniProt P53032) for `CAACGGAC` .
Marked response: 0.291

Exam item: Name the recorded PBM E-score of `GTGATTCA` , assay system Sut1 (UniProt P53032).
Marked response: -0.119

Exam item: Please tell me the measured PBM E-score for `CTCTTAAC` ; system: Sut1 (UniProt P53032).
Marked response: 0.042

Exam item: Specify the recorded PBM E-score for `CTACGGAC` , system: Sut1 (UniProt P53032).
Marked response: 0.169

Exam item: State recorded PBM E-score with Sut1 (UniProt P53032), entry `CTTCGCTA` , no comment.
Marked response: -0.0699

Exam item: Lab note: record PBM E-score of `ATGATTTC` tested on Sut1 (UniProt P53032).
Marked response: 0.299

Exam item: Please indicate recorded PBM E-score of `AATCGGAA` measured with Sut1 (UniProt P53032).
Marked response: 0.38

Exam item: Report its PBM E-score with Sut1 (UniProt P53032) as the test system: `CAGATGGG`
Marked response: -0.192

Exam item: State recorded PBM E-score with Sut1 (UniProt P53032), entry `ACCTCAGC` , no comment.
Marked response: -0.106

Exam item: // output PBM E-score; input `CAACGGAA` ; system Sut1 (UniProt P53032)
Marked response: 0.25

Exam item: Retrieve PBM E-score on Sut1 (UniProt P53032); query `AATCGGCC`
Marked response: -0.109

Exam item: Enter recorded PBM E-score with Sut1 (UniProt P53032) for `ACCAACAT` here.
Marked response: 0.0524

Exam item: Report PBM E-score under test system Sut1 (UniProt P53032) for `TACTAAAA` .
Marked response: 0.207

Exam item: Name the value of PBM E-score reported for `GCTCTTAC` when tested on Sut1 (UniProt P53032).
Marked response: 0.132

Exam item: Provide the reported PBM E-score (system: Sut1 (UniProt P53032)) for `TAAAACAA`
Marked response: 0.207

Exam item: With Sut1 (UniProt P53032) as the test system, provide measured PBM E-score for this sequence: `CTTACTAC`
Marked response: 0.0954

Exam item: Output reported PBM E-score of the sequence `CTGATTTC` on Sut1 (UniProt P53032).
Marked response: 0.0415

Exam item: Give PBM E-score only, for `CAAACAAA` , using Sut1 (UniProt P53032) data.
Marked response: 0.161

Exam item: Report PBM E-score under test system Sut1 (UniProt P53032) for `AATCGGCA` .
Marked response: 0.107

Exam item: Look up and report measured PBM E-score (Sut1 (UniProt P53032)) for the following sequence: `GCTCCCAC`
Marked response: -0.109

Exam item: Return reported PBM E-score for target or system Sut1 (UniProt P53032), item `CTCTTAAA` .
Marked response: 0.302

Exam item: Find the measured PBM E-score of `AAACGGAT` with Sut1 (UniProt P53032) as test system.
Marked response: 0.209

Exam item: State measured PBM E-score of the sequence `AAACAAAC` with Sut1 (UniProt P53032).
Marked response: 0.165

Exam item: Lab note: Sut1 (UniProt P53032) assay, enter PBM E-score for `GAAACAAA` here
Marked response: 0.321

Exam item: Enter recorded PBM E-score with Sut1 (UniProt P53032) for `GAACGGAA` here.
Marked response: 0.166

Exam item: Give the observed PBM E-score of `AATCCATA` for Sut1 (UniProt P53032).
Marked response: 0.108

Exam item: Give reported PBM E-score for `GTCTTAAA` (Sut1 (UniProt P53032))
Marked response: 0.00721

Exam item: Given `AACTATAA` , report its PBM E-score on Sut1 (UniProt P53032).
Marked response: 0.204

Exam item: State the measured PBM E-score (Sut1 (UniProt P53032)) of `ACTATTTG`
Marked response: 0.252

Exam item: State recorded PBM E-score with Sut1 (UniProt P53032), entry `AACTAAAA` , no comment.
Marked response: 0.31

Exam item: Report the value of PBM E-score obtained on Sut1 (UniProt P53032) for `GGCTTACA` .
Marked response: 0.0643

Exam item: Look up and report PBM E-score, with Sut1 (UniProt P53032) as system, for `AATCGGGC`
Marked response: -0.0945

Exam item: Enter recorded PBM E-score with Sut1 (UniProt P53032) for `AGCTATCA` here.
Marked response: -0.0476

Exam item: State measured PBM E-score of the sequence `AAGTCCGC` with Sut1 (UniProt P53032).
Marked response: 0.486

Exam item: Consider the sequence `ATTATTTA` tested on Sut1 (UniProt P53032); state its PBM E-score.
Marked response: 0.347

Exam item: Provide PBM E-score, system Sut1 (UniProt P53032), entry `AAACGGAA`
Marked response: 0.331

Exam item: Recall the reported PBM E-score of `GAATATGC` when tested on Sut1 (UniProt P53032).
Marked response: 0.0981

Exam item: State PBM E-score on Sut1 (UniProt P53032). Entry: `AAATTAAT`
Marked response: 0.292

Exam item: Give PBM E-score for this entry on Sut1 (UniProt P53032): `CGTAGGCA`
Marked response: -0.169

Exam item: State the measured PBM E-score (Sut1 (UniProt P53032)) of `ATATTATC`
Marked response: 0.223

Exam item: # return PBM E-score for `AAACGGGA` , test system: Sut1 (UniProt P53032)
Marked response: 0.159

Exam item: For Sut1 (UniProt P53032), give the measured PBM E-score of the entry `CATGAGAA`
Marked response: 0.0161

Exam item: GET PBM E-score | system: Sut1 (UniProt P53032) | item: `CGAAACAC`
Marked response: 0.0972

Exam item: Enter measured PBM E-score, system Sut1 (UniProt P53032), for the sequence shown: `CTTATTTA`
Marked response: 0.101

Exam item: Give measured PBM E-score for `AGCCACTG` (Sut1 (UniProt P53032)).
Marked response: -0.0195

Exam item: Give Sut1 (UniProt P53032) PBM E-score for the following sequence: `AAAAACAA`
Marked response: 0.316

Exam item: Provide Sut1 (UniProt P53032) PBM E-score reading for `CAAGGGGA` .
Marked response: -0.185

Exam item: Provide Sut1 (UniProt P53032) PBM E-score reading for `AAACAAAG` .
Marked response: 0.322

Exam item: # return PBM E-score of `GGAATGAA` (system: Sut1 (UniProt P53032))
Marked response: 0.166

Exam item: Please report the measured PBM E-score for `TCACGGAA` tested on Sut1 (UniProt P53032).
Marked response: 0.238
